// provenance: patent US7026443

Target: HLA-A*0301 (human)
Listing: binding affinity ratio (IC50 of the standard peptide / IC50 of the test peptide) of selected binders
outcome.measure: binding affinity ratio (IC50 of the standard peptide / IC50 of the test peptide)

CTELQTTIH (modifications not checked) [HPV16 E6 position 23 peptide …] ... 0.0002
QMSMSQWIK (modifications not checked) [HPV16 E1 peptide … (position 419, 9 amino acids)] ... 0.0023
NSNASAFLK (modifications not checked) [HPV16 E1 peptide … (position 386, 9 amino acids)] ... 0.0005
DIILECVYCK (modifications not checked) [HPV16 E6 position 32 peptide …] ... 0.0065
GTTLEQQYNK (modifications not checked) [HPV16 E6 position 92 peptide …] ... 0.0002
CVYCKQQLLR (modifications not checked) [HPV16 E6 position 37 peptide …] ... 0.0001
